Origin of measurements: PubChem BioAssay (NCI)

Test: NCI Yeast Anticancer Drug Screen. Data for the bub3 strain (AID 167)
Details: S. cerevisiae bub3 mutant strain, at 50.0 µM, stronger effect = higher value
The panel holds about 79,000 compounds, 15% with a hit somewhere; the sample as a whole holds those more often.
Recorded measurements of growth inhibition, one per entry
Hi! Could you send only the number? It should be in %, unit omitted.

The examples below pair each entry with its known result.
| COMPOUND | UNITS LABEL | RECORDED VALUE |
| --- | --- | --- |
| CCOC(=O)C(F)(F)C(F)(F)C(F)(F)F | % | -5.55 |
| CCOc1cc2c(cc1O)CC[C@@H]1[C@@H]2CC[C@]2(C)C(OS(=O)OC3CC[C@@H]4[C@H]5CCc6cc(O)c(OCC)cc6[C@@H]5CC[C@@]34C)CC[C@@H]12 (stereo not given in full) | % | 18.6 |
| CC1(C)COC(c2c(F)cccc2Cl)=N1 | % | 11.7 |
| C/C=C(\C)C(=O)OCC1=CCC2CCC(O)N12 (stereo not given) | % | 10.1 |
| c1c2c(cc3c1OCN(C1CC1)C3)OCN(C1CC1)C2 | % | -13.8 |
| O=c1nc2c(c(-c3ccc(Br)cc3)[nH]1)COC/C2=C\c1ccc(Br)cc1 | % | 18.1 |
| O=C(COc1cccc(C(=O)O)c1)Nc1ccccc1 | % | 50.8 |
| COc1ccc(C(Cl)=C(c2ccc(OCCN(C)C)cc2)c2ccc(OCCN(C)C)cc2)cc1 | % | 28.4 |

[ask] Quick one: growth inhibition of `CCOC(=O)Nc1cc([N+](C)(C)C)ccc1OCCOc1ccc([N+](C)(C)C)cc1` ?
[reply] -1.65

[ask] How about Clc1cc2nnn(C3CCCCO3)c2cc1Cl (stereo not given) ?
[reply] -0.9
